All figures here come from patent US20250388574A1.

target: hTREM2 (Homo sapiens, UniProt Q9NZC2); test: Phospho-Syk AlphaScreen/AlphaLISA assay in TREM2 and DAP12 overexpressing HEK293 cells (Example A1); type: cell-based; parameters: expressed in transfected cells; settings: HEK293 cells, read-out: hTREM2 EC50
Sequence (Q9NZC2 19-230): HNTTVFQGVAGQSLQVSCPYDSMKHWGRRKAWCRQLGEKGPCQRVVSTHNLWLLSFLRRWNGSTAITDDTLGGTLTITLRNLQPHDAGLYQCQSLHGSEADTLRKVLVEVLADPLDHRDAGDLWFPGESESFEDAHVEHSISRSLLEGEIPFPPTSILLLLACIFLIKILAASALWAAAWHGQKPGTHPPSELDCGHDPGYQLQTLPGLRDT
Sequence (O43914 22-113 partner): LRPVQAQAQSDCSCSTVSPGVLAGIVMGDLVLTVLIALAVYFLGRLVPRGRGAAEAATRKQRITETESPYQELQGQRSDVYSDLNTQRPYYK
pEC50: −log10 of the molar value.
property_measured: pEC50

- compound: "Cc1nc2cc(N3CCO[C@H](c4ccc(Cl)cc4)C3)nc(-c3ccc(Cl)cc3F)c2c(=O)n1C (single isomer, unassigned) [Example 86]"
  pEC50: "5.52 to 6.30"
- compound: "Cc1nc2cc(N3CCO[C@H](c4nccs4)C3)nc(-c3ccc(Cl)cc3F)c2c(=O)n1C [Example 198]"
  pEC50: "5.52 to 6.30"

The recorded pEC50 for entry Cc1nc2cc(N3CCC(C(F)(F)F)C3)nc(-c3ccc(Cl)cc3F)c2c(=O)n1C (stereo not drawn) [Example 119] equals 6.30 to 7.30

Record summary for Cc1nc2cc(N3CCO[C@H](c4cnn(C)c4)C3)nc(-c3ncc(Cl)cc3F)c2c(=O)n1C [Example 196] : reported pEC50 = 5.52 to 6.30

// pEC50 value for Cc1cn2c(n1)CN(c1cc3nc(C)n(C)c(=O)c3c(-c3ccc(Cl)cc3F)n1)CC2 [Example 234] : 4.00 to 5.52

Data point: Cc1nc2cc(N3CCO[C@H](c4noc(C5CC5)n4)C3)nc(-c3ccc(Cl)cc3F)c2c(=O)n1C [Example 201] ; pEC50 = 6.30 to 7.30

Entry Cc1nc2cc(N3CC[C@H](c4ccccc4)C3)nc(-c3ccc(Cl)cc3F)c2c(=O)n1C [Example 206] ; pEC50 = 4.00 to 5.52

# compound Cc1noc([C@@H]2CCCN(c3cc4nc(C)n(C)c(=O)c4c(-c4ccc(Cl)cc4F)n3)C2)n1 (single isomer, unassigned) [Example 111] ; its pEC50 = 6.30 to 7.30
